Kindly state cell viability for each of the entries shown.
System: Caco-2
Experiment: cell viability relative to DMSO; higher = less toxic
Details: 72 h; 1 nM
Reply with just the number (in %).

GET /values?readout=cell viability&item= CC(=O)O[C@]1(C(C)=O)CC[C@H]2[C@@H]3C=CC4=CC(=O)CC[C@]4(C)[C@H]3CC[C@@]21C [6,7-dehydro-17-acetoxy-progesterone] 95.6

Which cell viability is reported for this compound? CCn1cc(C(=O)O)c(=O)c2cc(F)c(N3CCNCC3)cc21 104

So what's the measured cell viability for this one? OCCN1CCN(CCCN2c3ccccc3Sc3ccc(C(F)(F)F)cc32)CC1 101

May I ask what cell viability has been recorded for Nc1nc(=O)n([C@@H]2CS[C@H](CO)O2)cc1F ? 107

* * *

Test system: Calu-3
Assay: cell viability relative to DMSO; higher = less toxic
Conditions: 72 h; 10000 nM
reported_endpoint: cell viability (%)
Number only, in %; omit the unit.

Sample CCn1c2ccccc2c2cc(Nc3ccnc(NCCCN4CCOCC4)n3)ccc21 — what was its cell viability? 6.7

Could you share which cell viability value was measured for CNC[C@H](O)[C@@H](O)[C@H](O)[C@H](O)CO ? 97.7

Value lookup for cell viability; key = CCOC(=O)[C@@](C)(N)Cc1ccc(O)c(O)c1 [methyldopate] 92.5

Please report the recorded cell viability for CCCOc1ccc(Br)cc1-c1cc(-c2ccc(Cl)cc2)[nH]c1-c1ccncc1 . 103

Item under review: C=CCN1C[C@H](C(=O)N(CCCN(C)C)C(=O)NCC)C[C@@H]2c3cccc4[nH]cc(c34)C[C@H]21 . Reported cell viability? 99.4

Tell me the measured cell viability of CCCCNc1ccc(C(=O)OCCN(C)C)cc1 , please. 108

For C[C@@H](c1nc(-c2ccc(C#N)cc2)cs1)[C@](O)(Cn1cncn1)c1cc(F)ccc1F , what is its reported cell viability? 99.2

So what does the record say about cell viability for COc1cc(C(C)=O)ccc1OCCCN1CCC(c2noc3cc(F)ccc23)CC1 ? 80.5

Return reported cell viability; argument: OC[C@@H](O)[C@@H](O)CO 98.7

Given the molecule COc1ccc2nc3cc(Cl)ccc3c(Nc3cc(CN4CCCC4)c(O)c(CN4CCCC4)c3)c2n1 , what is its reported cell viability? 46.4

Entry CC(C)(Oc1ccc(Cl)cc1)C(=O)OCCOC(=O)c1cccnc1 [etofibrate] : reported cell viability = ? 101

* * *

Tested on: A549-ACE2
Test: drug-induced phospholipidosis relative to tamoxifen; higher = more phospholipidosis
Conditions: 6.66667 µM; 72 h
reported_endpoint: drug-induced phospholipidosis (%)
Quick note: give the figure in %, leave out the unit.

For the compound shown here, CCN1CCN(Cc2ccc(C(=O)Nc3ccc(C)c(Oc4ccc5c(c4)CC(=O)N5)c3)cc2C(F)(F)F)CC1 [DDR1-IN-1] , give the reported drug-induced phospholipidosis. 89.3

Name the reported drug-induced phospholipidosis value associated with the compound CCCCCCCCCCC(O)C1C=CC2C(=O)N(c3ccccc3)C(=O)C2N1Nc1ccc([N+](=O)[O-])cc1 (stereo not given) [A12B4C3] 2.85

Entry under review: O=C(NCc1ccccc1)c1csc(Nc2ccncn2)n1 [thiazovivin] . Reported drug-induced phospholipidosis? -1.69

Entry under review: CCn1c2ccccc2c2cc(Nc3ccnc(NCCCN4CCOCC4)n3)ccc21 [EHop-016] . Reported drug-induced phospholipidosis? 69.6

Consider the compound shown here: OCCN1CCN(CCCN2c3ccccc3Sc3ccc(C(F)(F)F)cc32)CC1 [fluphenazine] What is its recorded drug-induced phospholipidosis? 80.2

Reference for the values: the supplement of paper PMC13380429
